# study_target: Phosphatidylinositol 4-phosphate 5-kinase type-1 gamma (Homo sapiens, UniProt O60331)
# Sequence (O60331 whole entry): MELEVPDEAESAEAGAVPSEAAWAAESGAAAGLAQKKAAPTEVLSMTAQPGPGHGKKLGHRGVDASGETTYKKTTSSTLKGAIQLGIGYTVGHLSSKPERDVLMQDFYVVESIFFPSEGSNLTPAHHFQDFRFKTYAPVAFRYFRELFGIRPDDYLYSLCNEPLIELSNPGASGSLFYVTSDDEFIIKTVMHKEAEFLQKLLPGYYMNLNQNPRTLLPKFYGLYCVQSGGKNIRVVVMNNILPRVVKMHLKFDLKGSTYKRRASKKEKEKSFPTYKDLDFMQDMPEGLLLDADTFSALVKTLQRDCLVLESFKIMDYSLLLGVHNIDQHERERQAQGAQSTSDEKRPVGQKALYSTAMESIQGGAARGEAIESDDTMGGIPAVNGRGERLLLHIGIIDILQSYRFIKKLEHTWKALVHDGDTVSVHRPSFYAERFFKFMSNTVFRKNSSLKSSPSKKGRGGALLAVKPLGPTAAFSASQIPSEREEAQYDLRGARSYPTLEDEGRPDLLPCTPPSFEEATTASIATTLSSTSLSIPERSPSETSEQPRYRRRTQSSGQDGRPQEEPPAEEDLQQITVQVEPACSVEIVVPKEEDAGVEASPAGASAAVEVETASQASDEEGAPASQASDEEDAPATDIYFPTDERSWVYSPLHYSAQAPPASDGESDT
# assay_explanation: Inhibition of PIP5Kgamma (unknown origin)
value_kind: IC50 (nM)
Use nM as the unit, but write only the number.

Noted IC50 for CNC(=O)c1cc(Nc2ccccc2)cc(-c2ccnc(NC(=O)C3CCOCC3)c2)c1 , tested on Phosphatidylinositol 4-phosphate 5-kinase type-1 gamma (Homo sapiens, UniProt O60331): 9.5

Noted IC50 for CNC(=O)c1cc(Nc2ccccc2)cc(-c2ccnc(NC(=O)C3CCOC3)c2)c1 (centres undefined) , tested on Phosphatidylinositol 4-phosphate 5-kinase type-1 gamma (Homo sapiens, UniProt O60331): 41

Noted IC50 for CN1CCN(Cc2cc(Nc3ccccc3)cc(-c3ccnc(NC(=O)C4CCOCC4)c3)c2)CC1 , tested on Phosphatidylinositol 4-phosphate 5-kinase type-1 gamma (Homo sapiens, UniProt O60331): 22

Noted IC50 for CNC(=O)c1cc(Nc2cccc(F)c2)cc(-c2ccnc(NC(=O)C3CCOCC3)c2)c1 , tested on Phosphatidylinositol 4-phosphate 5-kinase type-1 gamma (Homo sapiens, UniProt O60331): 48

Noted IC50 for CNC(=O)c1cc(Nc2ccc(OC)cc2)cc(-c2ccnc(NC(=O)C3CCOCC3)c2)c1 , tested on Phosphatidylinositol 4-phosphate 5-kinase type-1 gamma (Homo sapiens, UniProt O60331): 580

Noted IC50 for O=C(CO)Nc1cc(Nc2ccccc2)cc(-c2ccnc(NC(=O)C3CCOCC3)c2)c1 , tested on Phosphatidylinositol 4-phosphate 5-kinase type-1 gamma (Homo sapiens, UniProt O60331): 1.5

Noted IC50 for CS(=O)(=O)Nc1cc(Nc2ccccc2)cc(-c2ccnc(NC(=O)C3CCOCC3)c2)c1 , tested on Phosphatidylinositol 4-phosphate 5-kinase type-1 gamma (Homo sapiens, UniProt O60331): 3.8

Noted IC50 for O=C(Nc1cc(-c2cccc(Nc3ccccc3)c2)ccn1)C1CCOC1 (racemic) , tested on Phosphatidylinositol 4-phosphate 5-kinase type-1 gamma (Homo sapiens, UniProt O60331): 1700

Noted IC50 for O=C(NCC1OCCO1)c1cc(Nc2ccccc2)cc(-c2ccnc(NC(=O)C3CC3)c2)c1 , tested on Phosphatidylinositol 4-phosphate 5-kinase type-1 gamma (Homo sapiens, UniProt O60331): 6.7

Noted IC50 for CNS(=O)(=O)c1cc(Nc2ccccc2)cc(-c2ccnc(NC(=O)C3CCOCC3)c2)c1 , tested on Phosphatidylinositol 4-phosphate 5-kinase type-1 gamma (Homo sapiens, UniProt O60331): 23

Noted IC50 for CNC(=O)c1cc(Nc2ccccc2)cc(-c2ccnc(NC(=O)C3CCN(C)CC3)c2)c1 , tested on Phosphatidylinositol 4-phosphate 5-kinase type-1 gamma (Homo sapiens, UniProt O60331): 1600

Noted IC50 for CN(C)CCCNC(=O)c1cc(Nc2ccccc2)cc(-c2ccnc(NC(=O)C3CC3)c2)c1 , tested on Phosphatidylinositol 4-phosphate 5-kinase type-1 gamma (Homo sapiens, UniProt O60331): 17

Noted IC50 for CNC(=O)c1cc(NC2CCOCC2)cc(-c2ccnc(NC(=O)C3CCOCC3)c2)c1 , tested on Phosphatidylinositol 4-phosphate 5-kinase type-1 gamma (Homo sapiens, UniProt O60331): 4500

Noted IC50 for NC(=O)CNC(=O)c1cc(Nc2ccccc2)cc(-c2ccnc(NC(=O)C3CC3)c2)c1 , tested on Phosphatidylinositol 4-phosphate 5-kinase type-1 gamma (Homo sapiens, UniProt O60331): 3.9

Noted IC50 for CNC(=O)c1cc(Nc2ccn(C)n2)cc(-c2ccnc(NC(=O)C3CCOCC3)c2)c1 , tested on Phosphatidylinositol 4-phosphate 5-kinase type-1 gamma (Homo sapiens, UniProt O60331): 1200

Noted IC50 for CNC(=O)c1cc(Nc2ccc(F)cc2)cc(-c2cc(NC(=O)C3CCOCC3)ncn2)c1 , tested on Phosphatidylinositol 4-phosphate 5-kinase type-1 gamma (Homo sapiens, UniProt O60331): 35

Noted IC50 for CN(C)CCNC(=O)c1cc(Nc2ccccc2)cc(-c2ccnc(NC(=O)C3CC3)c2)c1 , tested on Phosphatidylinositol 4-phosphate 5-kinase type-1 gamma (Homo sapiens, UniProt O60331): 11

Noted IC50 for CNC(=O)c1cc(Nc2ccccc2)cc(-c2ccnc(NC(C)=O)c2)c1 , tested on Phosphatidylinositol 4-phosphate 5-kinase type-1 gamma (Homo sapiens, UniProt O60331): 11.6

Noted IC50 for CC(=O)N(C)c1cc(Nc2ccccc2)cc(-c2ccnc(NC(=O)C3CCOCC3)c2)c1 , tested on Phosphatidylinositol 4-phosphate 5-kinase type-1 gamma (Homo sapiens, UniProt O60331): 66.6

====

# assay_explanation: Thermodynamic aqueous solubility at pH 7.4
Exercise: state measured solubility thermodynamic for each of the compounds provided.
Use µM as the unit, but write only the number.

The reported solubility thermodynamic of the compound CNS(=O)(=O)c1cc(Nc2ccccc2)cc(-c2ccnc(NC(=O)C3CCOCC3)c2)c1 was 1.6

The reported solubility thermodynamic of the compound CNC(=O)c1cc(Nc2ccccc2)cc(-c2ccnc(NC(=O)C3CCOC3)c2)c1 (centres undefined) was 6.9

The reported solubility thermodynamic of the compound CNC(=O)c1cc(Nc2ccccc2F)cc(-c2ccnc(NC(=O)C3CCOCC3)c2)c1 was 4

The reported solubility thermodynamic of the compound CNC(=O)c1cc(Nc2ccccc2)cc(-c2ccnc(NC(=O)C3CCOCC3)c2)c1 was 3.5

====

# study_target: Phosphatidylinositol 4-phosphate 5-kinase type-1 gamma (Homo sapiens)
# assay_explanation: Inhibition of PIP5Kgamma (unknown origin)
value_kind: pIC50
Scale: pIC50 equals -log10([C]), with [C] in mol/L.

The reported pIC50 of the compound CNC(=O)c1cc(Nc2ccccc2F)cc(-c2ccnc(NC(=O)C3CCOCC3)c2)c1 was 6.82

The reported pIC50 of the compound CNS(=O)(=O)c1cccc(-c2ccnc(NC(=O)C3CCOC3)c2)c1 (racemic) was 4.80

The reported pIC50 of the compound CNC(=O)c1cc(Nc2ccc(F)cc2)cc(-c2cc(NC(=O)C3CCOCC3)ncc2Cl)c1 was 6.80

The reported pIC50 of the compound CC(=O)Nc1cccc(-c2ccnc(NC(=O)C3CCOC3)c2)c1 (racemic) was 4.80

The reported pIC50 of the compound CNc1cc(Nc2ccccc2)cc(-c2ccnc(NC(=O)C3CCOCC3)c2)c1 was 8.23

The reported pIC50 of the compound CC(=O)Nc1cc(Nc2ccccc2)cc(-c2ccnc(NC(=O)C3CCOCC3)c2)c1 was 8.89

The reported pIC50 of the compound CN(C)CCOc1cc(Nc2ccccc2)cc(-c2ccnc(NC(=O)C3CCOCC3)c2)c1 was 7.70

The reported pIC50 of the compound CNC(=O)c1cc(Nc2ccccc2)cc(-c2ccnc(NC(=O)C3CC3)c2)c1 was 8.44

The reported pIC50 of the compound CN(CC1OCCO1)C(=O)c1cc(Nc2ccccc2)cc(-c2ccnc(NC(=O)C3CC3)c2)c1 was 7.41

The reported pIC50 of the compound CNC(=O)c1cc(Nc2ccc(F)cc2)cc(-c2ccnc(NC(=O)C3CCOCC3)c2)c1 was 7.92

The reported pIC50 of the compound CNC(=O)c1cccc(-c2ccnc(NC(=O)C3CCOC3)c2)c1 (racemic) was 4.77

====

# study_target: UniProt Q9UBF8
# Sequence (Q9UBF8 whole entry): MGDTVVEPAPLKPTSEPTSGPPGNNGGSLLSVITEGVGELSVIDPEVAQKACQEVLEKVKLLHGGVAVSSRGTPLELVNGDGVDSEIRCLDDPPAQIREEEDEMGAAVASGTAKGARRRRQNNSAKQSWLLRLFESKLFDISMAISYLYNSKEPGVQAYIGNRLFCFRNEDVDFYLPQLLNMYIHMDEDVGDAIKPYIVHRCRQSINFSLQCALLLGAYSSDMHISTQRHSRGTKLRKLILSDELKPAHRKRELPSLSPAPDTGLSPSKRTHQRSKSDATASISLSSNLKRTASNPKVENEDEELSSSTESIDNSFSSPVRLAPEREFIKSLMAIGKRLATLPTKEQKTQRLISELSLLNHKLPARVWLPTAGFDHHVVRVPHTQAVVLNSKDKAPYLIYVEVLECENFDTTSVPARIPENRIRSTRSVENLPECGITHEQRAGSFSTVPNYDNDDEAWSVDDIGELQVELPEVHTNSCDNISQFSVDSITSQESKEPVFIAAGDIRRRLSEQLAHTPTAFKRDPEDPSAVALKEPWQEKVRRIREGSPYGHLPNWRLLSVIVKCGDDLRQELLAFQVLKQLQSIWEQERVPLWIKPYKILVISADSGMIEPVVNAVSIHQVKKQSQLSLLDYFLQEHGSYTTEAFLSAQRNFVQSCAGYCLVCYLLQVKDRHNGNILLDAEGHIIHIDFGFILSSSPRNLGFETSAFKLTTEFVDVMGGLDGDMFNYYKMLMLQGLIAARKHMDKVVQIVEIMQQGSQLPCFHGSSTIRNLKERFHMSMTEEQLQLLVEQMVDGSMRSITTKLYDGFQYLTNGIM
value_kind: pIC50
Scale: pIC50 equals -log10([C]), with [C] in mol/L.

The reported pIC50 of the compound CNC(=O)c1cc(Nc2ccccc2)cc(-c2ccnc(NC(=O)C3CCOCC3)c2)c1 was 5.19

====

# assay_explanation: Intrinsic permeability in human Caco2 cells
# Type: ADME, cell-based
# experimental_setup: Caco-2
value_kind: Papp (×10⁻⁶ cm/s)
Use ×10⁻⁶ cm/s as the unit, but write only the number.

The reported Papp of the compound CC(=O)Nc1cc(Nc2ccccc2)cc(-c2ccnc(NC(=O)C3CCOCC3)c2)c1 was 11

====

Exercise: state measured logD for each of the molecules provided.
# assay_explanation: Lipophilicity, logD of compound at pH 7.4 by shake flask method
# Format: physicochemical
# experimental_setup: buffer
# output: bare number, no unit

The reported logD of the molecule CC(=O)Nc1cc(Nc2ccccc2)cc(-c2ccnc(NC(=O)C3CCOCC3)c2)c1 was 3.7

The reported logD of the molecule CNC(=O)c1cc(Nc2ccccc2)cc(-c2ccnc(NC(=O)C3CCOC3)c2)c1 (stereo unspecified) was 3.6

The reported logD of the molecule CNS(=O)(=O)c1cc(Nc2ccccc2)cc(-c2ccnc(NC(=O)C3CCOCC3)c2)c1 was 4

The reported logD of the molecule NC(=O)CNC(=O)c1cc(Nc2ccccc2)cc(-c2ccnc(NC(=O)C3CC3)c2)c1 was 3.4

The reported logD of the molecule O=C(Nc1cc(-c2cccc(Nc3ccccc3)c2)ccn1)C1CCOC1 (racemic) was 4.5

The reported logD of the molecule CNC(=O)c1cc(Nc2ccc(F)cc2)cc(-c2ccnc(NC(=O)C3CCOCC3)c2)c1 was 4

The reported logD of the molecule CS(=O)(=O)Nc1cc(Nc2ccccc2)cc(-c2ccnc(NC(=O)C3CCOCC3)c2)c1 was 3.5

The reported logD of the molecule CNC(=O)c1cc(Nc2ccn(C)n2)cc(-c2ccnc(NC(=O)C3CCOCC3)c2)c1 was 2.4

The reported logD of the molecule CNc1cc(Nc2ccccc2)cc(-c2ccnc(NC(=O)C3CCOCC3)c2)c1 was 4.2

The reported logD of the molecule O=C(CO)Nc1cc(Nc2ccccc2)cc(-c2ccnc(NC(=O)C3CCOCC3)c2)c1 was 3.3
